Test system: alkaline phosphatase
protocol.description: In vitro enzymatic conversion (hydrolysis) by alkaline phosphatase
Assay type: in vitro ADME, bovine
protocol.conditions: bovine, pH 9.8; Alkaline Phosphatase, 37° C.; read-out: Enzymatic Hydrolysis (t½), Alkaline Phosphatase, 37° C.
Structures can show the parent of a compound that is named as a salt.
assay.metric: half-life
Form entry: enter the amount, then its unit.

molecule="CC(O[C@@H]1[C@@]2(C(C)C)O[C@H]2[C@@H]2O[C@]23[C@]12O[C@H]2C[C@H]1C2=C(CC[C@@]13C)C(=O)OC2)OP(=O)(O)O (some centres unmarked) [Example 3, Disodium Salt]" assay_metric=half-life reported_value="9 min"

Next:
Readout half-life for CCC(O[C@@H]1[C@@]2(C(C)C)O[C@H]2[C@@H]2O[C@]23[C@]12O[C@H]2C[C@H]1C2=C(CC[C@@]13C)C(=O)OC2)OP(=O)(O)O (some centres unmarked) [Example 4, Disodium Salt] , test system alkaline phosphatase, was 17 min

From: patent US10183033B2
